- protocolDetails: Half life in rat at 20 mg/kg, po or 5 mg/kg, iv
- Assay type: ADME, organism-based
- experimentalParameters: in vivo
propertyName: half-life (h)
The reply should contain only the number, in h.

Returns the measured half-life for the input compound. Input: "Fc1cccc(Cl)c1-c1nc(-c2ccc(C#Cc3ccccc3)nc2)c(Br)[nH]1"
4.8

---

- protocolDetails: Oral bioavailability in rat at 20 mg/kg, po
- Format: ADME, organism-based
- experimentalParameters: in vivo
propertyName: bioavailability (%)
The reply should contain only the number, in %.

Returns the measured bioavailability for the input compound. Input: "Fc1cccc(Cl)c1-c1nc(-c2ccc(C#Cc3ccccc3)nc2)c(Br)[nH]1"
127
